test: clinical; conditions: human, in vivo, 20 mg, Cmax,ss

| SMILES REPR | Cmax (ng/mL) |
| --- | --- |
| CN(C)C/C=C/C(=O)Nc1cc2c(Nc3ccc(F)c(Cl)c3)ncnc2cc1O[C@H]1CCOC1 | 31.3 |

----------
test: clinical; conditions: human, in vivo, 55 mg

| COMPOUND | half-life / h |
| --- | --- |
| CN(C)C/C=C/C(=O)Nc1cc2c(Nc3ccc(F)c(Cl)c3)ncnc2cc1O[C@H]1CCOC1 [afatinib] | 35.1 |

----------
test: clinical; conditions: human, in vivo, 55 mg, AUC0–24,ss

| COMPOUND | UNITS TEXT | AUC(0-t) |
| --- | --- | --- |
| CN(C)C/C=C/C(=O)Nc1cc2c(Nc3ccc(F)c(Cl)c3)ncnc2cc1O[C@H]1CCOC1 [afatinib] | ng·h/mL | 1360 |

Origin of measurements: paper PMC3589659
